# reported hERG current change (%, negative = inhibition) at 10uM; entries follow
- systemUnderTest: human ether-à-go-go-related gene (hERG) potassium channel (human);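 also: peak tail current of the secondary pulse compared with the same well before compound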
- Sequence (Q12809 whole entry, looked up): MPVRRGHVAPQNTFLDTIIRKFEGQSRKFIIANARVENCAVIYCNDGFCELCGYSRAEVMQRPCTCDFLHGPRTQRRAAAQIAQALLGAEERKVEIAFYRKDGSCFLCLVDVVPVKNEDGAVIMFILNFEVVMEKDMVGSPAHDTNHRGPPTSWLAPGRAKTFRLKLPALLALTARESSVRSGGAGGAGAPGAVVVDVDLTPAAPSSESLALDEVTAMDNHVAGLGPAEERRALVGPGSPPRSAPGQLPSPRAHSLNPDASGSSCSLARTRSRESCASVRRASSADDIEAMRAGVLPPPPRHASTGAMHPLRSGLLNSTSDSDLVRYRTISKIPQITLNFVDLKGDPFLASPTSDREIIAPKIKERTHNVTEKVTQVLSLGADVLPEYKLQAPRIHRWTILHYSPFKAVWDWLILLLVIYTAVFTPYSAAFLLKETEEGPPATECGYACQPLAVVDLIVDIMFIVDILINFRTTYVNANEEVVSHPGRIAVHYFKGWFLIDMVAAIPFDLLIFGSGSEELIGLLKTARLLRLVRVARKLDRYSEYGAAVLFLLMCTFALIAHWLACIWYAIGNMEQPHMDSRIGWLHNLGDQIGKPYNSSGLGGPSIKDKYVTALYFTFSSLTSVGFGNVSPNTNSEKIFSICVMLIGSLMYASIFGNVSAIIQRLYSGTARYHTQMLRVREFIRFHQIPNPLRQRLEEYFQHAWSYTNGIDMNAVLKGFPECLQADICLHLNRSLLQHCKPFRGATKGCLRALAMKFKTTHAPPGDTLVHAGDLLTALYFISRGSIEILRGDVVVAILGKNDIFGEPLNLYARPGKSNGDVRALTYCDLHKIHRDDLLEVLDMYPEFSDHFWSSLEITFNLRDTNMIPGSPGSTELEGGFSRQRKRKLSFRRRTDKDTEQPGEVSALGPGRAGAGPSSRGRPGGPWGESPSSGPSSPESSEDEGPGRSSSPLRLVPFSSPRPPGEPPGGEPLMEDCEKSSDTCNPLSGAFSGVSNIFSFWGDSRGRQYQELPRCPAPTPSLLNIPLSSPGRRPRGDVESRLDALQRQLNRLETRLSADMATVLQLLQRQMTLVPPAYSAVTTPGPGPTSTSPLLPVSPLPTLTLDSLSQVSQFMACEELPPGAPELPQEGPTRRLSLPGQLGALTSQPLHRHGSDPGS
- experimentNotes: primary screen, population patch clamp on CHO cells stably expressing hERG; higher = less effect of the substance
The campaign covered roughly 310,000 compounds. About 14,000 (4.5%) showed an effect of 50% or more. Effects have a minus sign here. For the sample, strong results were picked, then their nearest neighbours and some compounds at random.
endpointName: hERG current change (%, negative = inhibition) at 10uM (%)

> print(dat)
                                    compound  readoutnumber
 1  COc1ccc2c(c1)c(C(=O)N/N=C/c1ccc(OC)c(OC)c1)c(C)n2C          -39.2
 2         CC(=O)Nc1ccc(C(=O)NCCN2CCOCC2)cc1           15.8
 3  COc1ccc(N(CC(O)Cn2c(C)nc3ccccc32)S(=O)(=O)c2ccc(C)cc2)cc1 (centres unmarked)          -11.5
 4  CCOC(=O)CC12CN3CN(C1)CC(CC(=O)OCC)(C3)C2=O           8.62
 5  O=C(CCC(=O)Nc1cccc(C(F)(F)F)c1)NCC1CCCO1 (centres unmarked)           11.1
 6  CN(C)S(=O)(=O)c1ccc(Cl)c(NC(=O)COC(=O)/C=C/c2ccc3ccccc3n2)c1           1.53
 7  COc1ccc(N(CC(O)CN2C(=O)NC(C)(C)C2=O)S(=O)(=O)c2ccc(C)cc2)cc1 (centres unmarked)          -11.6
 8                 ClCc1csc(N/N=C/c2cccs2)n1           11.8
 9      Cc1nc2ccccc2c(=O)n1/N=C/c1ccc(O)cc1O           10.4
10  CSCC(C)N1CCC(n2nccc2NC(=O)c2ccc3c(c2)OCO3)CC1 (centres unmarked)          -2.95
11  Cc1ccc(N(Cc2ccccc2)C(=O)c2cc(S(=O)(=O)N3CCOCC3)ccc2C)cc1          -27.4
12  O=C(NC(Cc1c[nH]c2ccccc12)C(=O)O)/C(=C\c1ccc2c(c1)OCO2)NC(=O)c1ccccc1 (centres unmarked)          -7.13
13  CC(=O)N1CCN(S(=O)(=O)c2cccc(C(=O)N(Cc3ccccc3)c3cccc(C)c3)c2)CC1          -27.4
14  CN(C)C(=O)N1CCC(C(=O)NCc2ccc3c(c2)OCO3)CC1           5.54
15  CN1CCN(S(=O)(=O)c2cccc(C(=O)N(Cc3ccccc3)c3ccccc3)c2)CC1          -19.9
16           Clc1ccc(-c2noc(CN3CCOCC3)n2)cc1           4.83
17  O=C(C1CCN(Cc2nc(-c3ccc(Cl)cc3)no2)CC1)N1CCOCC1          -61.9
18  COc1ccc([N+](=O)[O-])cc1N(CC(O)Cn1nnc2ccccc21)S(=O)(=O)c1ccc(C)cc1 (centres unmarked)          -29.4
19                         O=Cc1c(Cl)cccc1Cl           13.9
20  Cc1ccc(N(C(=O)c2nsc(Cl)c2Cl)C(C(=O)NC2CCCC2)c2ccc(O)cc2)cc1C (centres unmarked)           9.52
21  Cc1ccc(-c2noc(CCC(=O)NCc3ccccc3CN3CCOCC3)n2)cc1          -36.5
22  Cc1cccc(C)c1NC(=O)CCCSc1nnc(-c2ccc(Cl)cc2)n1-c1ccccc1          -3.49
23           Cc1cc(C(=O)NNc2cc(Cl)ccc2Cl)no1           6.55
24  Cc1ccc(N(Cc2ccccc2)C(=O)c2ccc(S(=O)(=O)N3CCOCC3)cc2)cc1          -28.5
25  Cc1ccc(N(Cc2ccccc2)C(=O)c2cccc(S(=O)(=O)N3CCN(C)CC3)c2)cc1          -52.7
26  COc1cccc(OC)c1C(=O)NC(=S)N1CCCCC1c1cccnc1 (centres unmarked)            -13
27  COc1ccc2c(c1)c(C(=O)N/N=C/c1cccc(Br)c1)c(C)n2C          -15.9
28   CCOC(=O)/C(C#N)=C\c1ccc(N2CCN(C)CC2)cc1          -38.2
29  CC1CCCN(C(=O)C2CCN(Cc3ccc4c(c3)OCO4)CC2)C1.O=C(O)C(=O)O (centres unmarked)         -0.604
30  CCOc1ccc(Br)cc1S(=O)(=O)N1CCC(C(N)=O)CC1          -8.56
31                      OCCNc1nc2ccccc2[nH]1           12.8
32  COc1ccc(-c2cc(=O)oc3cc(OC(=O)C4CCCCC4)c(Cl)cc23)cc1           11.2
33  CCOc1ccc(/C=N/NC(=O)c2c(C)n(C)c3ccc(OC)cc23)cc1          -5.78
34  CCCn1nc(C(=O)NNC(=O)CCCOc2ccc(OC)cc2)c2ccccc2c1=O          -8.53
35       Nc1nc(N)nc(-c2cc(C(F)(F)F)ccc2Cl)n1           11.9

Reference source: paper PMC4336329
